- METHOD NOTES: Terminal half life in human
- Assay type: ADME
- ASSAY CONDITIONS: read-out: beta t1/2 (converted)
VALUE TYPE: half-life (h)
// units = h; emit number, no label

**Query** Recorded half-life of CCc1nc(C)cn2nc(-c3cc(=O)n4cc(C5CCN(C)CC5)cc(C)c4n3)cc12 , please.
**Result** 120

###

- EXPERIMENTAL SYSTEM: UniProt:Q12809
- Sequence (Q12809 whole entry): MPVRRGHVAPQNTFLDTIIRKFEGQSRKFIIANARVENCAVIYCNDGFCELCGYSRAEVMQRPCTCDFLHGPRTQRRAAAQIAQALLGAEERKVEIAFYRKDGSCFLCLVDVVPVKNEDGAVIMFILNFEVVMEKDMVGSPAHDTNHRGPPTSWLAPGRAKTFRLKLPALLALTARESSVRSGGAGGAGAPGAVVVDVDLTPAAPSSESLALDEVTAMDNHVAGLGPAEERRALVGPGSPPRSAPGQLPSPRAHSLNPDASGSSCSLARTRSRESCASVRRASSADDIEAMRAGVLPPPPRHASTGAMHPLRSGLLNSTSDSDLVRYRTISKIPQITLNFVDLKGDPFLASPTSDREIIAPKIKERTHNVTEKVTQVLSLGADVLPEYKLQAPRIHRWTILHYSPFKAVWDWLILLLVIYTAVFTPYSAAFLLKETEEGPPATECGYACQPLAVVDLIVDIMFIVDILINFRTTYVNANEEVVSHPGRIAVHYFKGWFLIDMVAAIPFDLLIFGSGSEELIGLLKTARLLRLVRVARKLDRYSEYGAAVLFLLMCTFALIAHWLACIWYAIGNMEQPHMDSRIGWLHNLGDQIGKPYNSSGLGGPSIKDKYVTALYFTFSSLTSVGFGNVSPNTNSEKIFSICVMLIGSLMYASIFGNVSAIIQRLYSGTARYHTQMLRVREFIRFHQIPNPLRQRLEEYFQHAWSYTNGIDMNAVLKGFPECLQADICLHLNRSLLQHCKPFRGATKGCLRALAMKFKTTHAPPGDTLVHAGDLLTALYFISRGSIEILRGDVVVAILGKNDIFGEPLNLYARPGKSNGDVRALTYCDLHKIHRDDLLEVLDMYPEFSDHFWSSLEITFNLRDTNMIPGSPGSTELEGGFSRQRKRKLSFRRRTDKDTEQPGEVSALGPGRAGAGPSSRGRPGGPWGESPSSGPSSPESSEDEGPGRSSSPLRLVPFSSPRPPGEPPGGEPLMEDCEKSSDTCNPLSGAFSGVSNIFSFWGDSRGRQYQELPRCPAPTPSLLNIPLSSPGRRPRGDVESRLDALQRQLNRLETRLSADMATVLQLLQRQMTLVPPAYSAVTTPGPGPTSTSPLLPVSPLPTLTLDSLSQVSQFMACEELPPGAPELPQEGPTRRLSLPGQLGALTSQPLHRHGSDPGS
- METHOD NOTES: Inhibition of human ERG at 37 degC
- ASSAY CONDITIONS: human
VALUE TYPE: IC20 (nM)
// units = nM; emit number, no label

**Query** Recorded IC20 of CCc1nc(C)cn2nc(-c3cc(=O)n4cc(C5CCN(C)CC5)cc(C)c4n3)cc12 , please.
**Result** 500
